Data origin, for the record: PubChem BioAssay

Test: reversal of MRP1-mediated doxorubicin resistance, pilot screen, H69AR cells, doxorubicin co-treatment (AID 601)
Details: H69AR cells + 2 uM doxorubicin, CellTiter-Glo, 72 h; at 10 µM; hits give high values
property_label: differential viability (reversal) (%)

[[record]]
compound = "COc1cc(-c2nnc(SCC(=O)c3cc(C)n(CC4CCCO4)c3C)o2)cc(OC)c1OC (configuration not stated)"
scale_unit = "%"
result = -2

[[record]]
compound = "c1cn(C23CC4CC(CC(C4)C2)C3)cn1"
scale_unit = "%"
result = 8.21

[[record]]
compound = "CCCCn1c(SCC(=O)N2CC(=O)Nc3ccccc32)nnc1-c1ccoc1C"
scale_unit = "%"
result = 4.84

[[record]]
compound = "CC(NC(=O)CSc1n[nH]c(=O)n1C1CC1)C12CC3CC(CC(C3)C1)C2 (configuration not stated)"
scale_unit = "%"
result = 6.17

[[record]]
compound = "O=C(NCc1cccs1)C1CCN(S(=O)(=O)c2cccs2)CC1"
scale_unit = "%"
result = 26.9

[[record]]
compound = "COc1cc(-c2noc(-c3cccc(Cl)c3)n2)cc(OC)c1OC"
scale_unit = "%"
result = -10.1

[[record]]
compound = "CCCCN(CC)S(=O)(=O)c1ccc2c(c1)CCCN2C(C)=O"
scale_unit = "%"
result = 0.71

[[record]]
compound = "Cc1ccccc1NC(=O)c1c(F)c(F)c(F)c(F)c1F"
scale_unit = "%"
result = 2.94

[[record]]
compound = "Cc1ccc(S(=O)(=O)NCC(=O)N(CC(=O)NCc2ccccc2)CC2CCCO2)cc1 (configuration not stated)"
scale_unit = "%"
result = 17.9

[[record]]
compound = "CC1=C(C#N)C(c2ccoc2)C(C(=O)OCc2ccccc2)=C(N)S1 (configuration not stated)"
scale_unit = "%"
result = -0.82

[[record]]
compound = "O=C(OCC(=O)N1CCCCCC1)c1cccs1"
scale_unit = "%"
result = 9.71

[[record]]
compound = "CN(c1ccccc1)S(=O)(=O)c1ccc(C(=O)OCC(=O)NCc2ccco2)cc1"
scale_unit = "%"
result = -10.4

[[record]]
compound = "Cc1ccc(C(C)C)c(OCCn2c(=O)oc3ccccc32)c1"
scale_unit = "%"
result = 13.5

[[record]]
compound = "CC(=O)c1c(NCCc2ccccc2)cc(C)oc1=O"
scale_unit = "%"
result = 9.25

[[record]]
compound = "CC(C)OC(=O)C(CC(=O)O)NCc1ccccc1 (configuration not stated)"
scale_unit = "%"
result = 3.69

[[record]]
compound = "CCc1nc(N)c(C#N)c(-c2ccc(OC)c(OC)c2)c1C"
scale_unit = "%"
result = 9.15

[[record]]
compound = "Cc1oc(-c2ccccc2Cl)nc1CSCC(=O)N1CCCC1"
scale_unit = "%"
result = 14.6

[[record]]
compound = "CC(C)(C)C(=O)CCN1C(=O)C2(OCCO2)c2ccccc21"
scale_unit = "%"
result = 9.06

[[record]]
compound = "CCOC(=O)Cn1c(N2CCOCC2)nc2c1c(=O)[nH]c(=O)n2C"
scale_unit = "%"
result = -0.31

[[record]]
compound = "O=C(Nn1cnnc1)c1cc2c(s1)CCCC2"
scale_unit = "%"
result = -2.61

[[record]]
compound = "Cc1cccc(-n2nnc(C(=O)NCc3ccccc3)c2N)c1"
scale_unit = "%"
result = 3.36

[[record]]
compound = "COc1cccc(C(=O)Nc2ccc(C)cc2)c1"
scale_unit = "%"
result = 3.96

[[record]]
compound = "O=C(COC(=O)c1ccccc1Oc1ccccc1)NC1CCS(=O)(=O)C1 (configuration not stated)"
scale_unit = "%"
result = -8.6

[[record]]
compound = "CCOc1ccc(S(=O)(=O)NCC2CCCO2)c2cccnc12 (configuration not stated)"
scale_unit = "%"
result = 6.55

[[record]]
compound = "COc1ccc(-c2noc(-c3cc(Cl)ccc3Cl)n2)cc1OC"
scale_unit = "%"
result = 18.4

[[record]]
compound = "Cc1cc(NC(=O)CCOc2ccccc2)no1"
scale_unit = "%"
result = 2.89

[[record]]
compound = "C=CCn1c(COc2ccccc2F)nnc1SCC(=O)N1CC(=O)Nc2ccccc21"
scale_unit = "%"
result = 2.88

[[record]]
compound = "Cc1ccc(C(C(=O)NC(C)(C)C)N(C(=O)c2csnn2)c2cccc(F)c2)o1 (configuration not stated)"
scale_unit = "%"
result = 1.6

[[record]]
compound = "CCn1cc(C(=O)NCCCOC)c(=O)c2cc(S(=O)(=O)N(C)C3CCCCC3)ccc21"
scale_unit = "%"
result = -13

[[record]]
compound = "COc1cc(SC)ccc1C(=O)Nc1ccon1"
scale_unit = "%"
result = 6.34

[[record]]
compound = "Cc1ccc(CNC(=O)C2CCCN(S(=O)(=O)c3cccnc3)C2)cc1 (configuration not stated)"
scale_unit = "%"
result = 10.6

[[record]]
compound = "CC(=O)c1ccc(NC2OC(C)C(O)C(O)C2O)cc1 (configuration not stated)"
scale_unit = "%"
result = 1.54

[[record]]
compound = "[O-][n+]1c2ccc3nonc3c2nn1-c1ccccc1Cl"
scale_unit = "%"
result = 16.1

[[record]]
compound = "Cc1c2c(nc3nc4ccccc4n13)CC(C)(C)CC2=O"
scale_unit = "%"
result = 36.9

[[record]]
compound = "CCOc1ccc(-n2c(C)nc3c(cnn3-c3ccc(Cl)cc3)c2=O)cc1"
scale_unit = "%"
result = -6.13

[[record]]
compound = "CCn1nc(CC(=O)Nc2nnc(CC(=O)N3CCCCC3)s2)c2ccccc2c1=O"
scale_unit = "%"
result = 4.77

[[record]]
compound = "CC1CCCC(C(=O)OCc2ccccc2)N1 (configuration not stated)"
scale_unit = "%"
result = 6.15

[[record]]
compound = "COC(=O)c1ccc(Cl)c(NC(C)=O)c1"
scale_unit = "%"
result = 7.73

[[record]]
compound = "O=C(CSc1nnc(-c2ccccc2F)o1)OCc1ccccc1"
scale_unit = "%"
result = 17.8

[[record]]
compound = "O=c1c2ccccc2cnn1-c1nc2ccccc2s1"
scale_unit = "%"
result = 0.15

[[record]]
compound = "Cc1ccc(SCCNS(=O)(=O)c2ccc(F)cc2)cc1"
scale_unit = "%"
result = 13.5

[[record]]
compound = "CN1C(=O)NC(NC(=O)C2CCCCC2)(C(F)(F)F)C1=O (configuration not stated)"
scale_unit = "%"
result = 6.06

[[record]]
compound = "CCOC(=O)c1ccccc1NC(=O)N1CCn2c(C)ccc2C1CC (configuration not stated)"
scale_unit = "%"
result = 1.62

[[record]]
compound = "O=C(Nc1ccc(CN2CCCCC2)cc1)c1ccc2c(c1)OCO2"
scale_unit = "%"
result = 11.9

[[record]]
compound = "COc1ccc(-c2nc3c(c(=O)n(C)c(=O)n3C)n2CC2CC(c3ccccc3)=NO2)cc1OC (configuration not stated)"
scale_unit = "%"
result = 1.44

[[record]]
compound = "CCOC(=O)Nc1sc(=S)n(C)c1C"
scale_unit = "%"
result = 3.1

[[record]]
compound = "Cc1cc(NC(=O)Cn2cnc3c(cnn3C(C)(C)C)c2=O)no1"
scale_unit = "%"
result = 2.12


###

# viability values compiled below
Assay: SK-BR-3 cell growth inhibitors, pilot screen, 24 h, human (AID 572);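 further: compound exposure lasted between 18 and 24 h rather than exactly 24 h; 100% = carrier-treated control wells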
Conditions: SK-BR-3 viability, CellTiter-Glo luminescence, at 10 µM, hits give low values
property_label: viability (%)

[[record]]
compound = "COc1ccc(N(CC(=O)NCCSC(C)(C)C)S(C)(=O)=O)c(OC)c1"
result = 91

[[record]]
compound = "CC1Cc2nc(SCC(=O)Nc3ccc(F)cc3F)n(C)c(=O)c2S1 (configuration not stated)"
result = 90

[[record]]
compound = "CCC1=C(C(=O)OC)C(c2cc(OC)ccc2OC)C(C#N)=C(N)O1 (configuration not stated)"
result = 99.5

[[record]]
compound = "Cn1c(=O)cc(OCC(=O)N2CCN(c3cccc(C(F)(F)F)c3)CC2)c2ccccc21"
result = 89

[[record]]
compound = "Cc1cc2c(=O)n(CC(=O)N3CCN(c4ccccc4)CC3)cnc2s1"
result = 92

[[record]]
compound = "COc1cccc(C(=O)N2CCCC(c3nc(-c4cccs4)no3)C2)c1 (configuration not stated)"
result = 98

[[record]]
compound = "COc1ccccc1-n1nnnc1SCc1ccccc1"
result = 103

[[record]]
compound = "N#CC1=C(N)OC(c2ccccc2)=C(C#N)C1c1ccc2c(c1)OCO2 (configuration not stated)"
result = 95

[[record]]
compound = "Cc1ccc(NC(=O)C2CCCN2S(=O)(=O)c2cccc3cccnc23)cc1F (configuration not stated)"
result = 98

[[record]]
compound = "CCOC(=O)CSc1nnc([C@H](C)NC(=O)OC(C)(C)C)o1"
result = 104

[[record]]
compound = "COc1ccc(CCNC(=O)CSc2nncn2N)cc1OC"
result = 93.5

[[record]]
compound = "O=C(Nc1ccccc1N1CCN(C(=O)c2ccc(Cl)cc2)CC1)c1cc2ccccc2o1"
result = 69.5

[[record]]
compound = "CCCCC(O)(C(NC=O)C(=O)OC)C(F)(F)F (configuration not stated)"
result = 95.5

[[record]]
compound = "CCOC(=O)C1CCCN(CCCc2ccccc2)C1 (configuration not stated)"
result = 104

[[record]]
compound = "c1ccc(N=P(c2nc3ccccc3o2)(N2CCOCC2)N2CCOCC2)cc1"
result = 119

[[record]]
compound = "CC(=O)N1CCN(Cc2ccc(Br)s2)CC1"
result = 93.5

[[record]]
compound = "CCC(Oc1ccc2ccccc2c1)C(=O)O (configuration not stated)"
result = 89.5

[[record]]
compound = "Cc1cccc(-n2ccnc2SCC(=O)Nc2cc(C)on2)c1"
result = 96

[[record]]
compound = "O=c1cc(-c2ccc(Cl)cc2)[nH][nH]1"
result = 108

[[record]]
compound = "COc1ccc(CCNC(=O)CC2COc3ccccc3O2)cc1OC (configuration not stated)"
result = 102

[[record]]
compound = "COc1cccc(-c2nc(CS(=O)CC(=O)NCCCOC(C)C)c(C)o2)c1 (configuration not stated)"
result = 102

[[record]]
compound = "Cc1nn(-c2ccccc2)c(C)c1/C=N/O"
result = 106

[[record]]
compound = "C=C(C)Cn1c(N2CCN(CC)CC2)nc2c1c(=O)[nH]c(=O)n2C"
result = 99.5

[[record]]
compound = "CCNC(=O)N1c2ccc(OCC)cc2C(C)=CC1(C)C"
result = 95.5

[[record]]
compound = "CCOC(=O)N1CCN(S(=O)(=O)c2cc(Cl)c(OC)cc2Cl)CC1"
result = 85

[[record]]
compound = "COc1ccc(C2=NOC(C(=O)NCCCN3CCOCC3)C2)cc1 (configuration not stated)"
result = 109

[[record]]
compound = "O=C(Nc1ccc(N2CCOCC2)c(F)c1)c1ccncc1"
result = 97

[[record]]
compound = "Cc1cc(C(=O)O)ccc1-n1c(C)ccc1C"
result = 100

[[record]]
compound = "O=C1Nc2ccccc2OC1CC(=O)N1CCCC1 (configuration not stated)"
result = 88.5

[[record]]
compound = "Nc1scc(-c2ccncc2)c1Cl"
result = 90.5

[[record]]
compound = "CCOc1ccc(C(=O)CN2CCN(S(=O)(=O)c3ccc(OC)cc3)CC2)cc1"
result = 99.5

[[record]]
compound = "N#CC1=C(N)S[C@H](C(=O)C23CC4CC(CC(C4)C2)C3)[C@H]1c1ccncc1"
result = 81

[[record]]
compound = "Cc1cc(NC(=O)COC(=O)c2cccc(S(=O)(=O)N3CCOCC3)c2)no1"
result = 112

[[record]]
compound = "Cc1ccc(S(=O)(=O)N(C)Cc2cc3ccccc3[nH]c2=O)cc1"
result = 114

[[record]]
compound = "CCOC(=O)CSc1nnc(-c2ccccc2OC)o1"
result = 116

[[record]]
compound = "CCOC(=O)N1CCN(S(=O)(=O)c2ccc(Br)s2)CC1"
result = 103

[[record]]
compound = "O=C1CSC(=Nc2ccc(O)cc2)N1c1ccc(O)cc1"
result = 93

[[record]]
compound = "CC(=O)N1CCN=C1SCc1c(F)cccc1Cl"
result = 102

[[record]]
compound = "Cc1ccc(S(=O)(=O)C2(C(=O)NC3CCCC3)CC2)cc1"
result = 148

[[record]]
compound = "CSCCC(NC(=O)c1occc1C)C(=O)O (configuration not stated)"
result = 93.5

[[record]]
compound = "Cc1cc(-c2ccc(F)cc2)nc2cc(C(N)=O)nn12"
result = 94.5

[[record]]
compound = "Cc1cccc(-c2nnc(SCC#N)n2-c2cccc(Cl)c2)c1"
result = 90.5

[[record]]
compound = "Cc1nn(C)cc1NC(=O)CCSc1nc(-c2ccco2)cc(C(F)(F)F)n1"
result = 90.5

[[record]]
compound = "Cc1ccccc1N1C(N)=NC(N)=NC1(C)C"
result = 107

[[record]]
compound = "Cc1nc(C)c(C(=O)C2=C(O)C(=O)N(CCN3CCOCC3)C2c2cccnc2)s1 (configuration not stated)"
result = 104

[[record]]
compound = "O=S(=O)(NCC(c1cccnc1)N1CCN(c2ccccc2)CC1)c1cc(F)ccc1F (configuration not stated)"
result = 98.5

[[record]]
compound = "O=S1(=O)CCC(NS(=O)(=O)/C=C/c2ccccc2)C1 (configuration not stated)"
result = 110

